- Read-out: Vascular cell adhesion molecule 1 (VCAM1), VCAM1 (gene 7412)
- assay_method_text: BSK_4H_VCAM1: BioMAP Diversity Plus: 4H Assay for Vascular cell adhesion molecule 1 (VCAM1) Biomarker Activity (AID 2283033);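 on outcome: cell-surface VCAM-1 protein measured by ELISA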
- protocol_conditions: primary human endothelial cells (HUVEC); actives raise or lower the signal
Activity calls are given as the source filed them. How the source made its calls: active means hit-call score of the fitted dose curve at least 0.9, where 1 is the maximum; inactive means score below 0.9.
Write down one outcome, taken from YES (active), NO (inactive)

Study these solved cases before continuing.
[
  {
    "compound": "Cc1ccc(-c2c(Cl)nc(C#N)n2S(=O)(=O)N(C)C)cc1",
    "label": "YES"
  },
  {
    "compound": "CS/C(C)=N/OC(=O)N(C)SN(C)C(=O)O/N=C(\\C)SC",
    "label": "YES"
  },
  {
    "compound": "COc1cnc(OC)n2nc(NS(=O)(=O)c3c(OCC(F)F)cccc3C(F)(F)F)nc12",
    "label": "NO"
  },
  {
    "compound": "N#Cc1nn(-c2c(Cl)cc(C(F)(F)F)cc2Cl)c(N)c1S(=O)C(F)(F)F (stereo unspecified)",
    "label": "YES"
  }
]

Inquiry: Check the results log: what was the call for `O=C(O)c1nc(Cl)ccc1Cl` ?
Reply text: NO

Inquiry: Also `CC(C)(C)c1ccc(CSc2cnn(C(C)(C)C)c(=O)c2Cl)cc1` ?
Reply text: NO
